target: Renin (Canis familiaris); experiment: Tested in vitro for its ability to inhibit the dog plasma renin
metric name: pIC50
On this scale, pIC50 is minus log10 of a concentration expressed in M (mol/L).

## Task Fill in pIC50 for `CCCC[C@H](N[C@@H](Cc1ccccc1)C(=O)N1CCC(OCOC)CC1)C(=O)N[C@@H](CC1CCCCC1)[C@@H](O)C[C@H](C(=O)NCC(C)(C)N1CCOCC1)C(C)C` tested with Renin (Canis familiaris).
## Result 7.85

###

target: Renin (Mustela putorius furo); assay: Tested in vitro for its ability to inhibit the ferret plasma renin
metric name: IC50 (nM)
Give your result in nM as a bare value.

## Task Please report IC50 for the following compound: `CCCC[C@H](N[C@@H](Cc1ccccc1)C(=O)N1CCC(OCOC)CC1)C(=O)N[C@@H](CC1CCCCC1)[C@@H](O)C[C@H](C(=O)NCC(C)(C)N1CCOCC1)C(C)C`
## Result 120
